Source of measurements: ChEMBL document CHEMBL3885861

Species on record: Rattus norvegicus
assay.remarks: Open TG-GATES - Regimen: Single
Type: toxicity, organism-based, Sprague-Dawley
Parameters: regimen Single, gender Male, age 6 weeks
particulars: in vivo, po, 0 mg/kg, 3 h, tissue Blood, route gavage, dose level Control
Ht: recorded values
Just the number in %, nothing appended.

Field: example entries. Status: answers known.
CCOc1ccc(NC(=O)CC(C)O)cc1 (stereo not drawn): 38.3
O=C(CCCN1CCC(O)(c2ccc(Cl)cc2)CC1)c1ccc(F)cc1: 40.2
CCOC(=O)CCC(=O)O[C@H]1[C@H](O[C@@H]2[C@@H](C)[C@H](O[C@H]3C[C@@](C)(OC)[C@@H](O)[C@H](C)O3)[C@@H](C)C(=O)O[C@H](CC)[C@@](C)(O)[C@H](O)[C@@H](C)C(=O)[C@H](C)C[C@@]2(C)O)O[C@H](C)C[C@@H]1N(C)C [ERYTHROMYCIN ETHYLSUCCINATE]: 40.2
CCCNC(=O)NS(=O)(=O)c1ccc(Cl)cc1 [CHLORPROPAMIDE]: 40.3

**Query** Item CN(C)CCCN1c2ccccc2CCc2ccc(Cl)cc21 has what recorded Ht?
**Result** 42.8

**Query** Please report the recorded Ht for CC(C)OC(=O)C(C)(C)Oc1ccc(C(=O)c2ccc(Cl)cc2)cc1 [FENOFIBRATE] .
**Result** 39.8

**Query** Give its Ht value. Item: C[C@@H]1C[C@H]2[C@@H]3CCC4=CC(=O)C=C[C@]4(C)[C@@]3(F)[C@@H](O)C[C@]2(C)[C@@]1(O)C(=O)CO
**Result** 39.6

**Query** Can you look up the measured Ht of NNC(=O)c1ccncc1 for me?
**Result** 37.8
